Hello, the source for this data is the supplement of paper PMC10126150, in case you need it.

# System: ATP;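 further: ATP exposure 15 min at 22 °C before imaging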
# TEST NAME: switch fluorescence ratio, 500 uM ATP over buffer (Cy3 cluster intensity, sum of 5 cycles each) (fold (ratio)); higher = stronger signal-on switching upon ATP binding; sequences stand for … in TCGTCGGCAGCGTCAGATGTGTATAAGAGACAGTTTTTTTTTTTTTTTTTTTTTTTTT…TC
# TEST SETTINGS: aptamer strand: ATP DNA aptamer (quencher-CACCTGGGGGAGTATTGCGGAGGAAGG + anchor), 100 nM annealed; ATP concentration: 500 uM
As shown below, each of these sequences has a reported switch fluorescence ratio value.
Could you keep your reply to the number by itself?

- ORDERED RESIDUES: "AGGAACGTAC"
  switch fluorescence ratio: 1.61
- ORDERED RESIDUES: "GGGATCAGCT"
  switch fluorescence ratio: 1.01
- ORDERED RESIDUES: "TATGTGAGGC"
  switch fluorescence ratio: 0.993
- ORDERED RESIDUES: "GGCGGGTTGG"
  switch fluorescence ratio: 0.998
- ORDERED RESIDUES: "TCAGGGTGTC"
  switch fluorescence ratio: 1.33

Quick note, switch fluorescence ratio for GGGCGTAAGG landed at 1.01

Quick note, switch fluorescence ratio for AGGGAGGTCG landed at 0.973

Quick note, switch fluorescence ratio for CGGTCATCTT landed at 0.999

Quick note, switch fluorescence ratio for GGGAGGGGTG landed at 1.02

Quick note, switch fluorescence ratio for AGGTGTATGT landed at 1.01

* * *

# Tested on: ATP;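 further: ATP exposure 15 min at 22 °C before imaging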
# TEST NAME: switch fluorescence ratio, 500 uM ATP over buffer (Cy3 cluster intensity, sum of 5 cycles each) (fold (ratio)); higher = stronger signal-on switching upon ATP binding; sequences stand for … in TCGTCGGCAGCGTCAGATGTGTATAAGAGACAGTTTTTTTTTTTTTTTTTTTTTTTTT…TC
# TEST SETTINGS: aptamer strand: ATP DNA aptamer (quencher-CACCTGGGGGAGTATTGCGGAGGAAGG + anchor), 100 nM annealed; ATP concentration: 500 uM
As shown below, each of these sequences has a reported switch fluorescence ratio value.
Could you keep your reply to the number by itself?

- ORDERED RESIDUES: "CCATGTGTAG"
  SYSTEM UNDER TEST: "ATP"
  OBSERVED: 1
- ORDERED RESIDUES: "TTTCATGGTA"
  SYSTEM UNDER TEST: "ATP"
  OBSERVED: 0.998
- ORDERED RESIDUES: "TGGTTTTGGG"
  SYSTEM UNDER TEST: "ATP"
  OBSERVED: 0.992
- ORDERED RESIDUES: "AATCAGAGTG"
  SYSTEM UNDER TEST: "ATP"
  OBSERVED: 1.01
- ORDERED RESIDUES: "ACATGGCATC"
  SYSTEM UNDER TEST: "ATP"
  OBSERVED: 1.05
- ORDERED RESIDUES: "AGGGGTTTGG"
  SYSTEM UNDER TEST: "ATP"
  OBSERVED: 0.983
- ORDERED RESIDUES: "CTATATTTTT"
  SYSTEM UNDER TEST: "ATP"
  OBSERVED: 1.01
- ORDERED RESIDUES: "TTGTTCGTAG"
  SYSTEM UNDER TEST: "ATP"
  OBSERVED: 0.981

Quick note, switch fluorescence ratio for ACCGAGGCTT landed at 1.45

Quick note, switch fluorescence ratio for GAGAACGGTT landed at 1.03

Quick note, switch fluorescence ratio for CCTTTGGGCA landed at 1.05

* * *

# Tested on: ATP;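 further: ATP exposure 15 min at 22 °C before imaging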
# TEST NAME: switch fluorescence ratio, 500 uM ATP over buffer (Cy3 cluster intensity, sum of 5 cycles each) (fold (ratio)); higher = stronger signal-on switching upon ATP binding; sequences stand for … in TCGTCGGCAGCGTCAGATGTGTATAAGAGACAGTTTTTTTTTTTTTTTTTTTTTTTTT…TC
# TEST SETTINGS: aptamer strand: ATP DNA aptamer (quencher-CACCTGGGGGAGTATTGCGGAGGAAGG + anchor), 100 nM annealed; ATP concentration: 500 uM
As shown below, each of these sequences has a reported switch fluorescence ratio value.
Could you keep your reply to the number by itself?

Recorded switch fluorescence ratio, per entry:
- ORDERED RESIDUES: "GACGGAGTTG"
  switch fluorescence ratio: 1.01
- ORDERED RESIDUES: "AAGATAGTAC"
  switch fluorescence ratio: 1.04
- ORDERED RESIDUES: "GGGTGAGGAG"
  switch fluorescence ratio: 0.998
- ORDERED RESIDUES: "ACGATGGAAT"
  switch fluorescence ratio: 1.45
- ORDERED RESIDUES: "TGGCGAGAGG"
  switch fluorescence ratio: 1

Quick note, switch fluorescence ratio for GGGTTAAGTA landed at 0.993

Quick note, switch fluorescence ratio for CGTATCATGC landed at 0.985

Quick note, switch fluorescence ratio for TCTTTACAGT landed at 1.05

Quick note, switch fluorescence ratio for TGCCTTTTTT landed at 1

Quick note, switch fluorescence ratio for TCTTCGGTTT landed at 1.11

Quick note, switch fluorescence ratio for TTTGAAGCAG landed at 1.08

Quick note, switch fluorescence ratio for TTGGGGCCAG landed at 1.09

Quick note, switch fluorescence ratio for ACTTAGCAGG landed at 1.08

Quick note, switch fluorescence ratio for CGTTGAAAGT landed at 0.991

Quick note, switch fluorescence ratio for CCACTGTGGT landed at 0.978

Quick note, switch fluorescence ratio for GATATTGTTA landed at 1

Quick note, switch fluorescence ratio for TAGTAGCTGT landed at 1.04

Quick note, switch fluorescence ratio for TTAAGAATGC landed at 1.07

Quick note, switch fluorescence ratio for TCCGTTGGGG landed at 1.05

Quick note, switch fluorescence ratio for GGAATAGATT landed at 0.99

* * *

As shown below, each of these sequences has a reported switch fluorescence ratio value.
# System: ATP;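 further: ATP exposure 15 min at 22 °C before imaging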
# TEST NAME: switch fluorescence ratio, 500 uM ATP over buffer (Cy3 cluster intensity, sum of 5 cycles each) (fold (ratio)); higher = stronger signal-on switching upon ATP binding; sequences stand for … in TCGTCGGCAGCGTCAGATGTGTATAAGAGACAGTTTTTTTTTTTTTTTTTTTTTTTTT…TC
# TEST SETTINGS: aptamer strand: ATP DNA aptamer (quencher-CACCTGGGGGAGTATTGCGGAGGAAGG + anchor), 100 nM annealed; ATP concentration: 500 uM
Could you keep your reply to the number by itself?

Recorded switch fluorescence ratio, per entry:
- ORDERED RESIDUES: "ATTTGACCAT"
  switch fluorescence ratio: 1.13
- ORDERED RESIDUES: "CGGGGTGGCT"
  switch fluorescence ratio: 0.977
- ORDERED RESIDUES: "TGGGCAAAAA"
  switch fluorescence ratio: 1.01
- ORDERED RESIDUES: "TTGTTGAGGG"
  switch fluorescence ratio: 1.01
- ORDERED RESIDUES: "GAGATCTAGT"
  switch fluorescence ratio: 1.01

Quick note, switch fluorescence ratio for GGCATCTGGG landed at 1.03

Quick note, switch fluorescence ratio for AAAAGGTCGT landed at 0.999

Quick note, switch fluorescence ratio for CCGGTGAGGG landed at 0.999

Quick note, switch fluorescence ratio for ATGGGCTGAA landed at 1.02

Quick note, switch fluorescence ratio for CACGGATTGC landed at 1.18

Quick note, switch fluorescence ratio for TTTGACCCTA landed at 1.04

Quick note, switch fluorescence ratio for CTTTAATCAA landed at 0.991

* * *

# System: ATP;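 further: ATP exposure 15 min at 22 °C before imaging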
# TEST NAME: switch fluorescence ratio, 500 uM ATP over buffer (Cy3 cluster intensity, sum of 5 cycles each) (fold (ratio)); higher = stronger signal-on switching upon ATP binding; sequences stand for … in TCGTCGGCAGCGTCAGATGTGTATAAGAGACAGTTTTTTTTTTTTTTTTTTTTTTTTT…TC
# TEST SETTINGS: aptamer strand: ATP DNA aptamer (quencher-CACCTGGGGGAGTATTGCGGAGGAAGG + anchor), 100 nM annealed; ATP concentration: 500 uM
PROPERTY: switch fluorescence ratio
Could you keep your reply to the number by itself?

Recorded switch fluorescence ratio, per entry:
- ORDERED RESIDUES: "GAAACAGATA"
  PROPERTY: "switch fluorescence ratio"
  OBSERVED: 1
- ORDERED RESIDUES: "AATGTCCGTC"
  PROPERTY: "switch fluorescence ratio"
  OBSERVED: 1.04

Quick note, switch fluorescence ratio for GCCGAAGCTG landed at 1.08

Quick note, switch fluorescence ratio for ACAGAGGAGC landed at 1.06

Quick note, switch fluorescence ratio for ATTTTAATCG landed at 0.985

Quick note, switch fluorescence ratio for CCTGTAGTTG landed at 1.04

Quick note, switch fluorescence ratio for CCAAATGTCT landed at 1.02

Quick note, switch fluorescence ratio for TCGGGGGTTC landed at 1.06

Quick note, switch fluorescence ratio for GGATTCTGTG landed at 0.969

Quick note, switch fluorescence ratio for AATATCACGG landed at 1.05
